ASSAY NAME: MT4 cytotoxicity (CC50)
TEST CONDITIONS: human, MT4 cells, MT4 CC50, Table 4
Quick reference for CC50 among some compounds

{"COMPOUND": "CCCCCCCCCCCCCCCCCCOC[C@H](COP(=O)(O)OC[C@H]1O[C@@](C#N)(c2ccc3c(N)ncnn23)[C@H](O)[C@@H]1O)Oc1cc(C#N)ccn1", "RESULT VALUE": "1780 nM"}
{"COMPOUND": "CCCCCCCCCCCCCCOC[C@H](COP(=O)(O)OC[C@H]1O[C@@](C#N)(c2ccc3c(N)ncnn23)[C@H](O)[C@@H]1O)OCc1cc(F)cc(C#N)c1", "RESULT VALUE": "473 nM"}

API: the following record is the query input.
Given the compound CCCCCCCCCCCCCCCCCCOC[C@H](COP(=O)(O)OC[C@H]1O[C@@](C#N)(c2ccc3c(N)ncnn23)[C@H](O)[C@@H]1O)Oc1cccc(C#N)n1 , write its reported CC50. 1180 nM
